system: BDF1 mice, colon carcinoma 38 sc, T/C %; assay: NCI In Vivo Anticancer Drug Screen. Data for tumor model Colon Carcinoma 38 (subcutaneous) in B6D2F1 (BDF1) mice; settings: endpoint: median tumor weight (est.); dose: 400.0 mg/kg/injection; schedule: Q07DX002 (ip); vehicle: Klucel (hydroxypropylcellulose) (HPC); higher = larger tumour
Records with an inconclusive call do not appear. Where a SMILES comes first, the peptide text is derived from it. The star is where a group is joined. Trt = c1ccc(C(c2ccccc2)(c2ccccc2)*)cc1; Cbz = O=C(OCc1ccccc1)*; Bn = c1ccc(C*)cc1; βAla = NCCC(=O)O
Property: T/C; scope: individual compounds

Example entries and their recorded answers appear below.
# compound, endpointValue
data = [
    ("CC12C(=O)C=CCC1=CCC1C2CCC2(O)C(=O)OC3(C)C4CC5(C)C(COC16OC23C5C6=O)C(=O)O4 (stereo not given)", "111 % of control"),
    ("Cc1ccc(S(=O)(=O)NC(=O)C2C(=O)CC3(CCCCC3)CC2=O)cc1", "102 % of control"),
    ("C(C#CCN1CCOCC1)#CCN1CCOCC1", "94 % of control"),
    ("COC(=O)C(CSC(c1ccccc1)(c1ccccc1)c1ccccc1)NC(=O)C(CSCc1ccccc1)NC(=O)CCNC(=O)OCc1ccccc1 (stereo not given) ({Cbz-βAla}-Cys(Bn)-Cys(Trt)-OMe; configuration not given here)", "123 % of control"),
    ("O=S(=O)(SC(S(=O)(=O)c1ccccc1)S(=O)(=O)c1ccccc1)c1ccccc1", "115 % of control"),
]

Problem: Quick one: T/C for CN(C)C(=O)SC1=C(c2c(Cl)cccc2Cl)C(=O)c2ccccc21 ?
Solution: 82 % of control

Problem: Quick one: T/C for Nc1ncnc2c1nnn2C1OC(CO)C(O)C1O (stereo not given) ?
Solution: 45 % of control

Problem: Quick one: T/C for O=Cc1ccccc1 ?
Solution: 97 % of control

Problem: Quick one: T/C for O=[N+]([O-])/C=C\c1ccc2c(c1)OCO2 ?
Solution: 102 % of control

Problem: Quick one: T/C for COc1cc(OC)c(OC)cc1/C=C\c1ccnc2ccccc12 ?
Solution: 120 % of control

* * *

system: BDF1 mice, colon carcinoma 38 sc, T/C %; assay: NCI In Vivo Anticancer Drug Screen. Data for tumor model Colon Carcinoma 38 (subcutaneous) in B6D2F1 (BDF1) mice; conditions: endpoint: median tumor weight (est.); dose: 25.0 mg/kg/injection; schedule: Q07DX002 (ip); vehicle: saline with Tween-80; higher = larger tumour
Inconclusive results are not listed.
Property: T/C; scope: individual molecules

Example entries and their recorded answers appear below.
# molecule, measuredEndpoint, endpointValue
measured = [
    ("CN(C)CCOc1ccc2c(c1)C/C(=C/c1ncc([N+](=O)[O-])n1C)C2=O", "T/C", "94 % of control"),
    ("O=S(=O)(CCl)OCCCl", "T/C", "111 % of control"),
    ("N#CCCSC(=S)C1CCCC1=N (stereo unspecified)", "T/C", "107 % of control"),
    ("CCCCc1ccc2nc(NC(=O)OC)[nH]c2c1", "T/C", "83 % of control"),
]

Problem: Request body: readout T/C, system BDF1 mice, colon carcinoma 38 sc, T/C %, query CNc1cccnc1/C=N/NC(N)=S . Return the value.
Solution: 119 % of control

Problem: Request body: readout T/C, system BDF1 mice, colon carcinoma 38 sc, T/C %, query Cn1c2nc(=O)n(-c3ccccc3)c(=O)c-2nc2c1CCCC2 . Return the value.
Solution: 72 % of control

* * *

tested on: BDF1 mice, colon carcinoma 38 sc, T/C %; test: NCI In Vivo Anticancer Drug Screen. Data for tumor model Colon Carcinoma 38 (subcutaneous) in B6D2F1 (BDF1) mice; conditions: endpoint: median tumor weight (est.); dose: 50.0 mg/kg/injection; schedule: Q07DX002 (ip); vehicle: saline; higher = larger tumour
Records with an inconclusive call do not appear.
measuredEndpoint: T/C

Example entries and their recorded answers appear below.
# compound, endpointValue
records = [
    ("NCCc1cc(O)c(O)c(O)c1", "62 % of control"),
    ("c1cc[c]([Sn]([NH]c2ncnc3[nH]cnc23)([NH]c2ncnc3[nH]cnc23)[c]2ccccc2)cc1", "84 % of control"),
    ("C[C@@H](CN1CC(=O)NC(=O)C1)N1CC(=O)NC(=O)C1", "95 % of control"),
]

Now take the following compound into account.
Problem: Quick one: T/C for O=C1C(O)=C(c2ccccc2)C(=O)C(O)=C1c1ccccc1 ?
Solution: 106 % of control

* * *

Tested on: BDF1 mice, colon carcinoma 38 sc, T/C %
Assay: NCI In Vivo Anticancer Drug Screen. Data for tumor model Colon Carcinoma 38 (subcutaneous) in B6D2F1 (BDF1) mice
Details: endpoint: median tumor weight (est.); dose: 200.0 mg/kg/injection; schedule: Q07DX003 (ip); vehicle: saline with Tween-80; higher = larger tumour
Protocol: The antitumor activity of compounds was measured in mice bearing transplantable tumors. Survival or tumor size were measured and the results are expressed as the measurement made in the treated group (T) divided by the measurement made in the vehicle treated control group (C). The tumor model used in this assay is Colon Carcinoma 38 (subcutaneous) in B6D2F1 (BDF1) mice
Results filed as inconclusive are left out.
measuredEndpoint: T/C

Example entries and their recorded answers appear below.
# compound, endpointValue
records = [
    ("COc1ccc([I+]c2cccc(Cl)c2)cc1Cl", "72 % of control"),
    ("CN(C)c1nc(N(C)C)nc(N(C)C)n1", "65 % of control"),
    ("CC1(C)OC2C(COC(=O)c3ccc([N+](=O)[O-])cc3)OC(NC(=O)N(CCCl)N=O)C2O1 (stereo unspecified)", "4 % of control"),
]

Problem: Quick one: T/C for CC/C(=C(/CC)c1ccc(O)cc1)c1ccc(O)cc1 ?
Solution: 179 % of control

Problem: Quick one: T/C for CC(=O)Oc1ccc[nH]c1=O ?
Solution: 114 % of control

Problem: Quick one: T/C for Cc1ccccc1SSc1ccccc1C ?
Solution: 74 % of control

* * *

system: BDF1 mice, colon carcinoma 38 sc, T/C %; assay: NCI In Vivo Anticancer Drug Screen. Data for tumor model Colon Carcinoma 38 (subcutaneous) in B6D2F1 (BDF1) mice; details: endpoint: median tumor weight (est.); dose: 2.0 mg/kg/injection; schedule: Q07DX002 (ip); vehicle: saline; higher = larger tumour
Results filed as inconclusive are left out.
measuredEndpoint: T/C

# molecule, T/C
records = [
    ("OCC1OC(n2cnc3c2NC=NC[C@H]3O)CC1O (stereo partly specified)", "68 % of control"),
    ("Nc1ccc2nc3ccc(N)cc3[n+](-c3ccccc3)c2c1", "95 % of control"),
    ("N#Cc1cn(C2OC(CO)C(O)C2O)c2ncnc(N)c12 (stereo unspecified)", "59 % of control"),
]

Problem: Quick one: T/C for Nc1ncnc2c1ncn2C1C=C(CO)C(O)C1O (stereo unspecified) ?
Solution: 93 % of control

Problem: Quick one: T/C for OC(C1CO1)C(O)C1CO1 (stereo unspecified) ?
Solution: 114 % of control

Problem: Quick one: T/C for COc1cc([C@@H]2c3cc4c(c(O)c3C[C@H]3COC(=O)[C@@H]32)OCO4)cc(OC)c1OC ?
Solution: 67 % of control

* * *

Property: T/C; scope: individual compounds
system: BDF1 mice, colon carcinoma 38 sc, T/C %; assay: NCI In Vivo Anticancer Drug Screen. Data for tumor model Colon Carcinoma 38 (subcutaneous) in B6D2F1 (BDF1) mice; conditions: endpoint: median tumor weight (est.); dose: 25.0 mg/kg/injection; schedule: Q07DX002 (ip); vehicle: Klucel (hydroxypropylcellulose) (HPC); higher = larger tumour
Records with an inconclusive call do not appear.

Example entries and their recorded answers appear below.
# compound, T/C
measured = [
    ("O=NN(CCCl)C(=O)NC1CCCCC1", "36 % of control"),
    ("CCN(CC)CCOC(=O)Cc1cc(OC)cc2c(=O)cc(-c3ccccc3)oc12", "82 % of control"),
    ("Cc1ccc(C2NC(=O)c3ccccc3N2)s1 (stereo not given)", "99 % of control"),
    ("O=C1C2(Cl)C3(Cl)C4(Cl)C(Cl)(Cl)C5(Cl)[C@]3(Cl)C1(Cl)[C@]5(Cl)C24Cl (stereo not given in full)", "88 % of control"),
    ("C(C#CCN1CCOCC1)#CCN1CCOCC1", "80 % of control"),
]

Problem: Request body: readout T/C, system BDF1 mice, colon carcinoma 38 sc, T/C %, query COc1ccc(Cl)[n+]([O-])n1 . Return the value.
Solution: 89 % of control

Problem: Request body: readout T/C, system BDF1 mice, colon carcinoma 38 sc, T/C %, query Cn1c(N)c(C(=O)/C=C/c2ccccc2)c(=O)n(C)c1=O . Return the value.
Solution: 114 % of control

Problem: Request body: readout T/C, system BDF1 mice, colon carcinoma 38 sc, T/C %, query N#C[Se-].c1ccc([Te+](c2ccccc2)c2ccccc2)cc1 . Return the value.
Solution: 186 % of control

Problem: Request body: readout T/C, system BDF1 mice, colon carcinoma 38 sc, T/C %, query COc1ccc(-c2cc(=O)c3cccc(CC(=O)O)c3o2)cc1OC . Return the value.
Solution: 106 % of control

Problem: Request body: readout T/C, system BDF1 mice, colon carcinoma 38 sc, T/C %, query O=C(O)C1(NO)CCCCC1 . Return the value.
Solution: 56 % of control
